Tested on: senescent IMR90 ER:RAS cells (4-OHT-induced)
Assay: Nuclei count (Hoechst, high content imaging) senolytic assay, oncogene-induced senescence (OIS) model, senescent cells
Format: cell-based, human
Conditions: Homo sapiens, IMR-90, Senescent cells; log (dose) [M] -6.66; individual replicates; SUP FIG 4C; read-out: % Cell Survival
PARAMETER_MEASURED: viability at 0.2188 µM (%)
Answer format: numeric, % implied, no suffix.

MOLECULE: CO[C@H]1C[C@@H]2CC[C@@H](C)[C@@](O)(O2)C(=O)C(=O)N2CCCC[C@H]2C(=O)O[C@H]([C@H](C)C[C@@H]2CC[C@@H](O)[C@H](OC)C2)CC(=O)[C@H](C)/C=C(\C)[C@@H](O)[C@@H](OC)C(=O)[C@H](C)C[C@H](C)/C=C/C=C/C=C/1C [Rapamycin, rapamycin, reference compound]
UNITS_OF_MEASURE: %
RECORDED_RESULT: 104

Input: Request - read-out viability at 0.2188 µM | tested on senescent IMR90 ER:RAS cells (4-OHT-induced) | molecule COC[C@H]1C[C@@H](c2nc(-c3ccc4c(c3)COc3cc5c(ccc6nc([C@@H]7CC[C@H](C)N7C(=O)[C@@H](NC(=O)OC)C(C)C)[nH]c65)cc3-4)c[nH]2)N(C(=O)[C@H](NC(=O)OC)c2ccccc2)C1 [Velpatasvir, velpatasvir, reference compound]
Output: 90.3

Input: Request - read-out viability at 0.2188 µM | tested on senescent IMR90 ER:RAS cells (4-OHT-induced) | molecule Cc1c(-c2c(F)cc(C(N)=O)c3[nH]c4c(c23)CC[C@H](C(C)(C)O)C4)cccc1-n1c(=O)c2cccc(F)c2n(C)c1=O
Output: 105

Input: Request - read-out viability at 0.2188 µM | tested on senescent IMR90 ER:RAS cells (4-OHT-induced) | molecule Cc1cc2c(C(C)C)c(O)c(O)c(C=O)c2c(O)c1-c1c(C)cc2c(C(C)C)c(O)c(O)c(C=O)c2c1O
Output: 189

====

In this section we review reported viability at 0.1 µM values for a set of compounds.
System: non-senescent control IMR90 ER:RAS cells
Experiment: Nuclei count (Hoechst, high content imaging) senolytic assay, OIS model, non-senescent control cells
Assay type: cell-based, human
Details: Homo sapiens, IMR-90, Control; log (dose) [M] -7; read-out: % Cell Survival
Answer format: numeric, % implied, no suffix.

Before answering, review these 2 worked examples.
COMPOUND: COC[C@H]1C[C@@H](c2nc(-c3ccc4c(c3)COc3cc5c(ccc6nc([C@@H]7CC[C@H](C)N7C(=O)[C@@H](NC(=O)OC)C(C)C)[nH]c65)cc3-4)c[nH]2)N(C(=O)[C@H](NC(=O)OC)c2ccccc2)C1 [Velpatasvir, velpatasvir, reference compound]
UNITS_OF_MEASURE: %
viability at 0.1 µM: 91.2

COMPOUND: O=c1cc(-c2ccc(O)cc2)oc2cc(O)c(O)c(O)c12
UNITS_OF_MEASURE: %
viability at 0.1 µM: 107

Kindly review the next compound as well.
Input: So what's the measured viability at 0.1 µM for this one? O=c1c(O)c(-c2ccc(O)cc2)oc2c(O)c(O)cc(O)c12
Output: 91.7

====

System: non-senescent control A549 cells
Assay: Nuclei count senolytic assay, TIS model, non-senescent control cells
Type: cell-based, human
Settings: Homo sapiens, A549; log (dose) [M] -7.66; Control cells; mean; read-out: Mean % Cell Survival
Where a name gives a salt, the structure may show the parent alone.
PARAMETER_MEASURED: viability at 0.0219 µM (%)
Answer format: numeric, % implied, no suffix.

COMPOUND: O=c1oc2c(O)c(O)cc3c(=O)oc4c(O)c(O)cc1c4c23 [Ellagic acid, ellagic acid]
TEST_TARGET: non-senescent control A549 cells
UNITS_OF_MEASURE: %
RECORDED_RESULT: 94.5

COMPOUND: CC[C@]1(O)C[C@@H]2CN(CCc3c([nH]c4ccccc34)[C@@](C(=O)OC)(c3cc4c(cc3OC)N(C)[C@H]3[C@@](O)(C(=O)OC)[C@H](OC(C)=O)[C@]5(CC)C=CCN6CC[C@]43[C@@H]65)C2)C1 [Vinblastine sulfate, vinblastine sulfate, reference compound]
TEST_TARGET: non-senescent control A549 cells
UNITS_OF_MEASURE: %
RECORDED_RESULT: 69.2

COMPOUND: O=c1c(O)c(-c2ccc(O)cc2O)oc2cc(O)cc(O)c12 [Morin, morin]
TEST_TARGET: non-senescent control A549 cells
UNITS_OF_MEASURE: %
RECORDED_RESULT: 67.6

COMPOUND: CO[C@H]1C[C@@H]2CC[C@@H](C)[C@@](O)(O2)C(=O)C(=O)N2CCCC[C@H]2C(=O)O[C@H]([C@H](C)C[C@@H]2CC[C@@H](OCCO)[C@H](OC)C2)CC(=O)[C@H](C)/C=C(\C)[C@@H](O)[C@@H](OC)C(=O)[C@H](C)C[C@H](C)/C=C/C=C/C=C/1C [Everolimus, everolimus, reference compound]
TEST_TARGET: non-senescent control A549 cells
UNITS_OF_MEASURE: %
RECORDED_RESULT: 105

COMPOUND: O=c1c(O)c(-c2ccc(O)cc2)oc2c(O)c(O)cc(O)c12 [Herbacetin, herbacetin]
TEST_TARGET: non-senescent control A549 cells
UNITS_OF_MEASURE: %
RECORDED_RESULT: 96.1

Input: So what's the measured viability at 0.0219 µM for this one? COC[C@H]1C[C@@H](c2nc(-c3ccc4c(c3)COc3cc5c(ccc6nc([C@@H]7CC[C@H](C)N7C(=O)[C@@H](NC(=O)OC)C(C)C)[nH]c65)cc3-4)c[nH]2)N(C(=O)[C@H](NC(=O)OC)c2ccccc2)C1 [Velpatasvir, velpatasvir, reference compound]
Output: 92.1

Input: So what's the measured viability at 0.0219 µM for this one? CO[C@H]1C[C@@H]2CC[C@@H](C)[C@@](O)(O2)C(=O)C(=O)N2CCCC[C@H]2C(=O)O[C@H]([C@H](C)C[C@@H]2CC[C@H](n3cnnn3)[C@H](OC)C2)CC(=O)[C@H](C)/C=C(\C)[C@@H](O)[C@@H](OC)C(=O)[C@H](C)C[C@H](C)/C=C/C=C/C=C/1C [Zotarolimus, zotarolimus, reference compound]
Output: 96.8

Input: So what's the measured viability at 0.0219 µM for this one? CO[C@H]1C[C@H](O[C@H]2CC[C@@]3(C)[C@H](CC[C@@H]4[C@@H]3CC[C@]3(C)[C@@H](C5=CC(=O)OC5)[C@@H](OC(C)=O)C[C@]43O)C2)O[C@@H](C)[C@@H]1O [Oleandrin, oleandrin]
Output: 25.8

Input: So what's the measured viability at 0.0219 µM for this one? COc1cc(O)c2c(=O)cc(-c3ccc(OC)c(-c4c(O)cc(O)c5c(=O)cc(-c6ccc(O)cc6)oc45)c3)oc2c1 [Ginkgetin, ginkgetin]
Output: 95.6
